Ref: the supplement of paper PMC6757056

B1: library; a variant is named by its letters at N, in order (parent)
chain: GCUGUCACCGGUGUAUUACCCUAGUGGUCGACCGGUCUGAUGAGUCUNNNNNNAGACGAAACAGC

variants of: B1; experiment: FACS-Seq fitted mean relative fluorescence mCherry/BFP without ligand (log10 relative fluorescence); ligand: hypoxanthine (xanthine aptamer); higher = higher reporter protein expression; conditions: HEK293T, ligand present: no
ENDPOINT NAME: FACS-Seq fitted mean (log10)

>>> observed_measurement("GCUGUCACCGGUGUAUUACCCUAGUGGUCGACCGGUCUGAUGAGUCUUACAAUAGACGAAACAGC [UACAAU]")
0.702
>>> observed_measurement("GCUGUCACCGGUGUAUUACCCUAGUGGUCGACCGGUCUGAUGAGUCUCCAACCAGACGAAACAGC [CCAACC]")
0.551
>>> observed_measurement("GCUGUCACCGGUGUAUUACCCUAGUGGUCGACCGGUCUGAUGAGUCUUGACUAAGACGAAACAGC [UGACUA]")
0.629
>>> observed_measurement("GCUGUCACCGGUGUAUUACCCUAGUGGUCGACCGGUCUGAUGAGUCUAGCGGGAGACGAAACAGC [AGCGGG]")
0.579
>>> observed_measurement("GCUGUCACCGGUGUAUUACCCUAGUGGUCGACCGGUCUGAUGAGUCUACGACAAGACGAAACAGC [ACGACA]")
0.53
>>> observed_measurement("GCUGUCACCGGUGUAUUACCCUAGUGGUCGACCGGUCUGAUGAGUCUACCUAGAGACGAAACAGC [ACCUAG]")
-0.692
>>> observed_measurement("GCUGUCACCGGUGUAUUACCCUAGUGGUCGACCGGUCUGAUGAGUCUAUCUAAAGACGAAACAGC [AUCUAA]")
0.268
>>> observed_measurement("GCUGUCACCGGUGUAUUACCCUAGUGGUCGACCGGUCUGAUGAGUCUAGGCAGAGACGAAACAGC [AGGCAG]")
0.337
>>> observed_measurement("GCUGUCACCGGUGUAUUACCCUAGUGGUCGACCGGUCUGAUGAGUCUACUCGGAGACGAAACAGC [ACUCGG]")
0.949
>>> observed_measurement("GCUGUCACCGGUGUAUUACCCUAGUGGUCGACCGGUCUGAUGAGUCUGAUACGAGACGAAACAGC [GAUACG]")
-0.036
>>> observed_measurement("GCUGUCACCGGUGUAUUACCCUAGUGGUCGACCGGUCUGAUGAGUCUACGGCGAGACGAAACAGC [ACGGCG]")
-0.0504
